meta.source: patent US20120029177A1

For each entry below, report its % ID/g Heart value.
system: SNU-C4 xenografted nude mice; assay: Biodistribution study in SNU-C4 xenografted nude mice after intravenous injection; format: in vivo, mouse; settings: heart, 1 hr after intravenous injection
Give bare numbers, in % ID/g.

Worked cases, answers included:
Q) What does the record list as % ID/g Heart for O=C([O-])CN1CCN(CC(=O)[O-])CCN(CC(=O)O)CCN(CC(=O)[O-])CC1.[68Ga+3] [^68Ga-DOTA, reference compound] ?
A) 0.23

Q) Would you mind doing NC(CN1CCN(CC(=O)[O-])CCNCCN(CC(=O)[O-])CC1)C(=O)[O-].[68Ga+3] (centres unmarked) [^68Ga-DO2A-ala] as well?
A) 0.79

Q) Next: O=C([O-])CN1CCNCCN(CC(=O)[O-])CCN(CC(=O)[O-])CC1.[68Ga+3] [^68Ga-DO3A, reference compound]
A) 0.32

Quick batch: % ID/g Heart for everything below.
1. NC(CNC(=O)CN1CCN(CC(=O)[O-])CCN(CC(=O)[O-])CC1)C(=O)[O-].[68Ga+3] (centres unmarked) [^68Ga-NOTA-ala]
2. N[C@@H](CN1CCN(CC(=O)[O-])CCN(CC(=O)[O-])CCN(CC(=O)[O-])CC1)C(=O)O.[68Ga+3] (stereo in doubt) [^68Ga-DO3A-ala]
3. O=C([O-])CN1CCNCCN(CC(=O)[O-])CCNCC1.[68Ga+3] [^68Ga-DO2A, reference compound]
4. NC(CNC(=O)CN1CCN(CC(=O)[O-])CCN(CC(=O)[O-])CCN(CC(=O)[O-])CC1)C(=O)O.[68Ga+3] (centres unmarked) [^68Ga-DOTA-ala]
5. O=C([O-])CN1CCN(CC(=O)[O-])CCN(CC(=O)[O-])CC1.[68Ga+3] [^68Ga-NOTA, reference compound]

A)
1: 0.26; 2: 1.69; 3: 0.37; 4: 0.43; 5: 0.15

###

system: SNU-C4 xenografted nude mice; assay: Biodistribution study in SNU-C4 xenografted nude mice after intravenous injection; assay type: in vivo, mouse; details: liver, 10 min after intravenous injection
Kindly return Met if reported % ID/g Liver is no lower than 2 % ID/g; return Not met if it is lower.

Below, 3 molecules whose answers are already recorded.
Q) Is % ID/g Liver at least 2 % ID/g? Consider NC(CNC(=O)CN1CCN(CC(=O)[O-])CCN(CC(=O)[O-])CC1)C(=O)[O-].[68Ga+3] (centres unmarked) [^68Ga-NOTA-ala]
A) Met

Q) Also check NC(CN1CCN(CC(=O)[O-])CCNCCN(CC(=O)[O-])CC1)C(=O)[O-].[68Ga+3] (centres unmarked) [^68Ga-DO2A-ala]
A) Not met

Q) Also check O=C([O-])CN1CCNCCN(CC(=O)[O-])CCNCC1.[68Ga+3] [^68Ga-DO2A, reference compound]
A) Met

---
Q) Check this molecule for % ID/g Liver at or above 2 % ID/g: N[C@@H](CN1CCN(CC(=O)[O-])CCN(CC(=O)[O-])CCN(CC(=O)[O-])CC1)C(=O)O.[68Ga+3] (stereo in doubt) [^68Ga-DO3A-ala]
A) Met

Q) Please give the result for O=C([O-])CN1CCN(CC(=O)[O-])CCN(CC(=O)O)CCN(CC(=O)[O-])CC1.[68Ga+3] [^68Ga-DOTA, reference compound] too.
A) Not met

Q) Request: NC(CNC(=O)CN1CCN(CC(=O)[O-])CCN(CC(=O)[O-])CCN(CC(=O)[O-])CC1)C(=O)O.[68Ga+3] (centres unmarked) [^68Ga-DOTA-ala]
A) Not met
